Test: small-molecule binders of probe aNOTCH2, primary screen, biochemical, small-molecule microarray, 635/667 nm fluorescence (AID 1121);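 further: score merges feature fluorescence read at 667 nm with its signal to noise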
Details: higher = more signal
Respond with label 1 for composite z-score values of -0.1 and above, label 0 for values below.

Use the examples below as a reference point.
API: above_or_equal(metric=composite z-score, cutoff=-0.1) for item `CO[C@H]1O[C@H](CO)[C@@H](OC(=O)Nc2ccc(C(F)(F)F)cc2)[C@H](OC(=O)Nc2ccccc2-c2ccccc2)[C@H]1OC(=O)Nc1ccccc1-c1ccccc1`
label 1

API: above_or_equal(metric=composite z-score, cutoff=-0.1) for item C=CCC(OC(C)=O)[C@@H]1[C@@H](N(Cc2ccc(-c3ccccc3)cc2)C(=O)c2cccc3ccccc23)c2cc(OCCCO)ccc2N1C(=O)c1ccc2ccccc2c1 (stereo partly specified)
label 1

Next:
API: above_or_equal(metric=composite z-score, cutoff=-0.1) for item `Cc1ccc(F)cc1S(=O)(=O)N[C@@H]1CCN(Cc2ccc3c(c2)OCO3)C1`
label 0

API: above_or_equal(metric=composite z-score, cutoff=-0.1) for item `COc1ccc(CCNC(=O)[C@@]2(C)c3ccccc3C(=O)N(Cc3cc(C(F)(F)F)cc(C(F)(F)F)c3)[C@H]2c2ccc(CO)cc2)cc1`
label 0

API: above_or_equal(metric=composite z-score, cutoff=-0.1) for item `COCCOC(=O)N1C(=O)[C@@]2(c3cc(C#CC4=CCCCC4)ccc31)[C@H](C(=O)N1CCN(c3ncccn3)CC1)[C@H]1C(=O)O[C@H](c3ccccc3)[C@H](c3ccccc3)N1[C@@H]2c1ccccc1OCCO`
label 1

###

Tested on: wheat germ agglutinin (Triticum aestivum), Alexa647-labelled
Experiment: wheat germ agglutinin binders on compound microarrays, profiling panel, artefact control for SMM control-protein annotation, biochemical, small-molecule microarray, 635/667 nm fluorescence (AID 1140);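 further: score merges 667 nm feature emission with signal to noise over triplicate slides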
Settings: WGA-A647 binding, 635 nm fluorescence, higher = more signal
Each entry below carries its reported composite z-score.
Just the number, please, no unit after it.

Would you mind telling me what composite z-score value was observed for `CC(C)C[C@@H]1NC(=O)[C@@H]2C[C@H](C(=O)O)[C@H](c3ccc(O)cc3)N2C1=O` ?
0.938

Would you mind telling me what composite z-score value was observed for `COC(=O)[C@@]1(Cc2ccc(F)cc2)[C@H]2c3cc(C(=O)N(C)C)n(CCn4cc([N+](=O)[O-])nc4C)c3C[C@H]2CN1C(=O)c1ccccc1` ?
0.288

Would you mind telling me what composite z-score value was observed for `COCCn1c(C(=O)N2CCCC2)cc2c1C[C@H]1CN(C(=O)c3ccccc3)[C@@](Cc3ccccc3)(C(=O)OC)[C@@H]21` ?
1.11

Would you mind telling me what composite z-score value was observed for `COCCOC(=O)N1C(=O)[C@@]2(c3cc(C#CC4(O)CCCCCC4)ccc31)[C@H](c1ccccc1OCCO)N1[C@H](c3ccccc3)[C@H](c3ccccc3)OC(=O)[C@H]1[C@@H]2C(=O)N1CCCCCCC1` ?
1.29

Next:
Would you mind telling me what composite z-score value was observed for O=C1C2C=CC(C(O)C(c3ccccc3)c3ccccc3)N(Nc3ccccc3)C2C(=O)N1c1ccccc1 (stereo not drawn) ?
0.882

Would you mind telling me what composite z-score value was observed for `COCCOC(=O)N1C(=O)[C@@]2(c3ccccc31)[C@H](c1ccc(OCCO)cc1)N1[C@H](c3ccccc3)[C@H](c3ccccc3)OC(=O)[C@H]1[C@@H]2C(=O)N1CCN(c2ncccn2)CC1` ?
1.04

Would you mind telling me what composite z-score value was observed for O=C1OCCC/C=C\[C@H]2OC34C=CCN(Cc5ccccc5)C(=O)[C@H]3N(CCCCCO)C(=O)[C@@H]4C12 (stereo partly drawn) ?
-1.09

Would you mind telling me what composite z-score value was observed for CC(C)C[C@@H]1NC(=O)C([C@@H](C)OCc2ccccc2)NC(=O)[C@@]23C(=O)N[C@@H](Cc4ccccc4)C2[C@H](C)[C@@]2(C)O[C@H]2C3/C=C/CC/C=C/CNC1=O (stereo partly drawn) ?
0.503

Would you mind telling me what composite z-score value was observed for `C=CCOC(=O)[C@H]1[C@@H]2C(=O)O[C@@H](c3ccccc3)[C@@H](c3ccccc3)N2[C@@H](c2ccc(OCCOC(=O)[C@@H]3C[C@@H]4C(=O)N[C@@H](Cc5ccccc5)C(=O)N4[C@@H]3c3ccc(O)cc3)cc2)[C@]12C(=O)Nc1ccccc12` ?
1.2

Would you mind telling me what composite z-score value was observed for `COCCOC(=O)N1C(=O)[C@@]2(c3cc(C#CCC(C(=O)OC)C(=O)OC)ccc31)[C@H](C(N)=O)[C@H]1C(=O)O[C@H](c3ccccc3)[C@H](c3ccccc3)N1[C@@H]2c1ccc(OCCO)cc1` ?
0.762

Would you mind telling me what composite z-score value was observed for COc1cc2c(cc1O)C(C1CC1)N(Cc1ccc([N+](=O)[O-])o1)CC2 (stereo not drawn) ?
1.06

Would you mind telling me what composite z-score value was observed for Cc1ccccc1C(O)C1C=CC2C(=O)N(c3ccccc3)C(=O)C2N1Nc1ccccc1F (stereo not drawn) ?
1.15

Would you mind telling me what composite z-score value was observed for COC(=O)C1(CC(C)C)C=C2C(=C(C(C)C)C(=O)C2C)CN1 (stereo not drawn) ?
0.323
